# SUBJECT OF TEST: T1, Recombinant Human ErbB2/Fc Chimera (produced by R&D Systems) (human, UniProt P04626 23-652)
# T1 construct: Bought reagent; Immobilised by amine coupling on a GLM chip, about 3,000 RU; also called HER2; Fc part of the bought chimera not given
# TEST DETAILS: SPR (ProteOn XPR36), ErbB2/Fc amine-coupled on GLM chip, conjugate injected, 1:1 Langmuir fit
Ends that are not written are not given here.
Would you kindly list pKd for each of these binders?
pKd field: float, defined as -log10 of concentration (mol/L).

Identify measured pKd associated with MARSGLGGKGSC(PEG ME‑200MA) (also: ICG-Sulfo-OSu conjugated, site not given here, Conjugate with PEG 20k and ICG) [pe-PEG20 (PEG ME-200MA modified with ICG and the HER2-binding peptide of Sequence No. 3)]
5.59

Identify measured pKd associated with MARSGLGGKGSC(PEG ME‑400MA) (also: ICG-Sulfo-OSu conjugated, site not given here, Conjugate with PEG 40k and ICG) [pe-PEG40 (PEG ME-400MA modified with ICG and the HER2-binding peptide of Sequence No. 3)]
5.51
